Target: Phosphodiesterase 4 (Homo sapiens, UniProt P27815+Q08499+Q07343+Q08493)
Test: Inhibition of Phosphodiesterase 4 from human U937 cells
Type: cell-based
Details: u-937
Collected IC50 values appear next to each entry.
outcome.measure: IC50 (nM)

• COc1ccc(C(=O)Nc2ncncc2Cl)c2cc(C(C)=O)oc12 = 164
• COc1ccc(C(=O)Nc2c(Cl)cncc2Cl)c2cc(C(C)O)oc12 (stereo not given) = 8.6
• COc1ccc(C(=O)Nc2ccncc2)c2cc(C(C)=O)oc12 = 120
• COc1ccc(C(=O)Nc2c(Cl)cncc2Cl)c2cc(C(=O)c3ccncc3)oc12 = 2.41
• COc1ccc(C(=O)Nc2c(Cl)cc(C#N)cc2Cl)c2cc(C(C)=O)oc12 = 85.1
• CCc1cc2c(C(=O)Nc3c(Cl)cncc3Cl)ccc(OC)c2o1 = 27
• COc1ccc(C(=O)Nc2ccncc2Cl)c2cc(C(C)=O)oc12 = 6.3
• COc1ccc(C(=O)Nc2c(Cl)cncc2Cl)c2cc(CC(C)(C)C)oc12 = 17
• COc1ccc(C(=O)Nc2c(Cl)cncc2Cl)c2cc(C(C)=O)oc12 = 1.6
• COc1ccc(C(=O)Nc2cccnc2Cl)c2cc(C(C)=O)oc12 = 875
• COc1ccc(C(=O)N(C)c2c(Cl)cncc2Cl)c2cc(C(C)=O)oc12 = 330
• COc1ccc(C(=O)Nc2c(Cl)cncc2Cl)c2c(C)c(C(C)=O)oc12 = 320
• COc1ccc(C(=O)Nc2ncccc2C)c2cc(C(C)=O)oc12 = 452
• COc1ccc(C(=O)Nc2ccccc2Cl)c2cc(C(C)=O)oc12 = 54
• COc1ccc(C(=O)Nc2c(Cl)cncc2Cl)c2cc(C(=O)O)oc12 = 770

* * *

Collected inhibition values appear next to each entry.
Biological target: Phosphodiesterase 3 (Homo sapiens) (UniProt Q14432+Q13370)
Test: Inhibition of Phosphodiesterase 3 from human platelets
Parameters: concentration or dose not given beside the values
Details: concentration not given here
outcome.measure: inhibition (%)

• COc1ccc(C(=O)Nc2c(Cl)cncc2Cl)c2cc(C(=O)O)oc12 = 38
• COc1ccc(C(=O)Nc2c(Cl)cncc2Cl)c2cc(C#N)oc12 = 31
• COc1ccc(C(=O)Nc2c(Cl)cncc2Cl)c2cc(C(C)O)oc12 (configuration not stated) = 23
• COc1ccc(C(=O)Nc2c(Cl)cncc2Cl)c2cc(C(=O)c3ccncc3)oc12 = 7
• COc1ccc(C(=O)Nc2c(Cl)cncc2Cl)c2cc(CC(C)(C)C)oc12 = 34
• CCc1cc2c(C(=O)Nc3c(Cl)cncc3Cl)ccc(OC)c2o1 = 46
• COc1ccc(C(=O)Nc2c(Cl)cncc2Cl)c2cc(C(C)=O)oc12 = 32
